All values here come from ChEMBL document CHEMBL6083176.

Assay: Selectivity ratio of RBA for ERalpha (unknown origin) to RBA for ERbeta (unknown origin)
Measured Selectivity ratio values are reported for all entries that follow.

{"compound-structure-string": "Cc1ncsc1-c1ccc([C@H](C)NC(=O)[C@@H]2C[C@@H](O)CN2C(=O)[C@@H](NC(=O)CCCCCOc2cc(O)ccc2/C=C/C2=CC(=C(C#N)C#N)c3cc(O)ccc3O2)C(C)(C)C)cc1", "Selectivity ratio": 1.48}
{"compound-structure-string": "Cc1ncsc1-c1ccc([C@H](C)NC(=O)[C@@H]2C[C@@H](O)CN2C(=O)[C@@H](NC(=O)CCCCCCCOc2cc(O)ccc2/C=C/C2=CC(=C(C#N)C#N)c3cc(O)ccc3O2)C(C)(C)C)cc1", "Selectivity ratio": 3.79}

Please supply the value of reported Selectivity ratio for the item Cc1ncsc1-c1ccc([C@H](C)NC(=O)[C@@H]2C[C@@H](O)CN2C(=O)[C@@H](NC(=O)CCCCCCCCCCCOc2cc(O)ccc2/C=C/C2=CC(=C(C#N)C#N)c3cc(O)ccc3O2)C(C)(C)C)cc1
1.51

Please supply the value of reported Selectivity ratio for the item Cc1ncsc1-c1ccc([C@H](C)NC(=O)[C@@H]2C[C@@H](O)CN2C(=O)[C@@H](NC(=O)CCCCCCCCCOc2cc(O)ccc2/C=C/C2=CC(=C(C#N)C#N)c3cc(O)ccc3O2)C(C)(C)C)cc1
2.03
